The reader will find reported TGI values listed item by item below.
Tested on: IGROV1 ovarian
experiment-summary: NCI tumour cell line growth inhibition, 48 h
recorded-metric: TGI

>>> result("NS(=O)(=O)c1cccc(-c2ccc3c(NC(=O)C4CC4)n[nH]c3c2)c1")
"> 25 µM"
>>> result("C=CCCCOC1[C@H](OCc2ccccc2)C(OCc2ccccc2)C(OC)O[C@@H]1CNC(=O)c1cccc(I)c1 (some centres undefined)")
"> 100 µM"
>>> result("COc1cc(/C=N\\NC(=O)C[N+](C)(C)C)cc(OC)c1OC")
"> 10 µM"
>>> result("Oc1ccc(Cl)cc1C1=N/C(=N\\C/N=C2\\N=C(c3cc(Cl)ccc3O)CC(c3ccccc3)N2)NC(c2ccccc2)C1 (centres undefined)")
"> 100 µM"
>>> result("O=C(/C=C(\\O)c1ccccc1)/C(=C/C(=O)c1ccccc1)NN=C(c1ccccc1)c1ccccc1")
"> 100 µM"
>>> result("CCN(C(=O)CN1CCN(c2cc3c(cc2F)c(=O)c(C(=O)O)cn3CC)CC1)c1nc(-c2ccccc2)cs1")
"> 100 µM"
>>> result("N#CC1(c2ccccc2)CCN(C2(c3ccccc3)CCCCC2)CC1")
"> 100 µM"
>>> result("N#CC12C(=O)N3C(=NC(c4ccccc4)NC3c3ccccc3)C1(C#N)C(c1ccccc1)NC1=C2CCCC1 (centres undefined)")
"> 100 µM"
>>> result("Cc1ccc(SC[C@@]2(C(F)F)NC(=O)NC2=O)cc1")
"> 100 µM"
